# ASSAYED SYSTEM: OCT2 variant A270S (Homo sapiens, UniProt O15244)
# ASSAY COMMENT: Concentration-dependent transport by OCT2 variant A270S in HEK293 cells
# CONDITION SET: human, pH 7.4
OBSERVED PROPERTY: Km at 2 min (µM)
Respond with the bare value in µM.

// field: Km at 2 min; key: C[C@H](N)[C@@H](O)c1ccccc1 [Cathine, (+)-norpseudoephedrine] ; value = 58.4

====

# ASSAYED SYSTEM: OCT2 (Homo sapiens)
# Sequence (O15244 1-555 S270A): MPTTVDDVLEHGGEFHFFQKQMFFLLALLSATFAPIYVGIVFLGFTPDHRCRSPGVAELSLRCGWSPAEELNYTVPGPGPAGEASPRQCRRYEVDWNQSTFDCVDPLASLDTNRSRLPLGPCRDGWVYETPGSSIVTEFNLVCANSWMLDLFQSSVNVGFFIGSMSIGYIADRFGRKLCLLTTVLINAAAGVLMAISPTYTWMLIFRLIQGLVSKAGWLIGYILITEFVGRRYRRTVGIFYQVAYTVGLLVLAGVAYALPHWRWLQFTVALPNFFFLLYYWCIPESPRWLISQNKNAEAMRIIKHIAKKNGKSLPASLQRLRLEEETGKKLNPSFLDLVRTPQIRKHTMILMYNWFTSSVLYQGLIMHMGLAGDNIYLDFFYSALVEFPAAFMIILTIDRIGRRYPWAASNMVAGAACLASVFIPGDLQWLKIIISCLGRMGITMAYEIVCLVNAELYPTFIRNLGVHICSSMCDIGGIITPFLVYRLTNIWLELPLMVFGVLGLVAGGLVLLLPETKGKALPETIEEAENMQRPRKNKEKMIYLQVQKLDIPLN
# ASSAY COMMENT: Screening of cellular uptake at 1 µM, OCT2-overexpressing HEK293 cells over empty vector control cells
# CONDITION SET: 2 min
OBSERVED PROPERTY: ratio of uptake in transporter-transfected cells over empty vector control cells

{"COMPOUND": "CN[C@@H](C)Cc1ccccc1 [Methylamphetamine]", "ASSAYED SYSTEM": "OCT2 (Homo sapiens)", "VALUE MEASURED": "4- to 6 fold"}
{"COMPOUND": "CN(C)CCc1c[nH]c2ccccc12 [DMT, dimethyltryptamine]", "ASSAYED SYSTEM": "OCT2 (Homo sapiens)", "VALUE MEASURED": "approximately 3 fold"}
{"COMPOUND": "CNC(C)Cc1ccc(OC)cc1 (stereo not shown) [PMMA, para-methoxymethamphetamine]", "ASSAYED SYSTEM": "OCT2 (Homo sapiens)", "VALUE MEASURED": "approximately 3 fold"}
{"COMPOUND": "C[C@H](N)[C@@H](O)c1ccccc1 [Cathine, (+)-norpseudoephedrine]", "ASSAYED SYSTEM": "OCT2 (Homo sapiens)", "VALUE MEASURED": "4- to 6 fold"}
